All values here come from the supplement of paper PMC12764529.

assay: folding stability dG unfold from trypsin proteolysis; higher = more stable

# primary.sequence, folding stability dG unfold / kcal/mol
measured = [
    ("SAGGGSMSESLSLVEEEIKVGETVVKVKRLIYPVSGTALVEITKPGGGPIGVFNTTISPSTGGVELLSAGGS [r16_798_JUSTAS]", -1.04),
    ("SAGGSAGGSAKIIVNEDGYLIKITNKNGKEITIEMSEDELKELLKKLGIKKAEIVPLPKEKSAGGSAGGSAG [r3_141_TrROS_Hall]", 0.382),
    ("SAGGSAKTIKIWIPVKGMTPEMLEEIARDILEELGMKVDIEPHPGDGYIEVTFKLPGKDIEIIIPWSAGGSA [r15_168_TrROS]", 2.04),
    ("SAGGSAMEIEVEKNEDGTVTIRFRDKETGEEIEIEIEVEPGMTEEEVREKAEELAEELKKKGIEIESAGGSA [r15_1022_TrROS_Hall]", 2.82),
]
